Reference source for all entries: paper PMC12416549

- ASSAY SYSTEM: T1, TNFR1 (Homo sapiens, UniProt P19438)
- T1 chain: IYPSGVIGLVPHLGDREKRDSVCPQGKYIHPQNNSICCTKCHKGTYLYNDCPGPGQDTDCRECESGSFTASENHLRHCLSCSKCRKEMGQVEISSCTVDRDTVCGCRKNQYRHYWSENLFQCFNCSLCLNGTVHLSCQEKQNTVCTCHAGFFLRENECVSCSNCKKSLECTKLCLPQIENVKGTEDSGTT
- ASSAY REMARKS: yeast display SC50
# Lookup of reported apparent Kd (screen) keyed by entry
Could you give the number and then its unit, please?

V95S (designed binder) SMEEEVEKAAKEYEKKKKEAIEKHLEKLKAKDKEAAERFLKELEEAAKEYAKDEAKTMSEEEAKRRAKKYKEKVLLSELSEEEQKEIKEAEEKLSRTILKYVEEAAK :: 13.8 nM
I21V (designed binder) SMEEEVEKAAKEYEKKKKEAVEKHLEKLKAKDKEAAERFLKELEEAAKEYAKDEAKTMSEEEAKRRAKKYKEKVLLSELSEEEQKEIKEAEEKLVRTILKYVEEAAK :: 0.446 nM
K27R (designed binder) SMEEEVEKAAKEYEKKKKEAIEKHLERLKAKDKEAAERFLKELEEAAKEYAKDEAKTMSEEEAKRRAKKYKEKVLLSELSEEEQKEIKEAEEKLVRTILKYVEEAAK :: 0.869 nM

Please examine the following record next.
**Q:** Answer with the recorded apparent Kd (screen) of E42Q (designed binder) SMEEEVEKAAKEYEKKKKEAIEKHLEKLKAKDKEAAERFLKQLEEAAKEYAKDEAKTMSEEEAKRRAKKYKEKVLLSELSEEEQKEIKEAEEKLVRTILKYVEEAAK only.
**A:** 9.41 nM
